# Assay notes: Antiproliferative activity against human doxorubicin-resistant MES-SA/Dx5-Rx1 cells
# Format: functional
Parameter measured: pIC50
pIC50 field: float, defined as -log10 of concentration (mol/L).

### Prompt Please report the recorded pIC50 for C=C1C[C@@H]2CC[C@@]34C[C@H]5O[C@H]6[C@@H](O3)[C@H]3O[C@H](CC[C@@H]3O[C@H]6[C@H]5O4)CC(=O)C[C@@H]3[C@@H](OC)[C@@H](CCN4CCOCC4)O[C@H]3C[C@H]3O[C@@H](CC[C@@H]1O2)C[C@@H](C)C3=C .
### Response 8.60

### Prompt Please report the recorded pIC50 for C=C1C[C@@H]2CC[C@@]34C[C@H]5O[C@H]6[C@@H](O3)[C@H]3O[C@H](CC[C@@H]3O[C@H]6[C@H]5O4)CC(=O)C[C@@H]3[C@@H](OC)[C@@H](CCCN4CCOCC4)O[C@H]3C[C@H]3O[C@@H](CC[C@@H]1O2)C[C@@H](C)C3=C .
### Response 8.89

### Prompt Please report the recorded pIC50 for C=C(C)CN1CCO[C@@H](C[C@H]2O[C@H]3C[C@H]4O[C@@H](CC[C@@H]5O[C@@H](CC[C@@]67C[C@H]8O[C@H]9[C@@H](O6)[C@H]6O[C@H](CC[C@@H]6O[C@H]9[C@H]8O7)CC(=O)C[C@@H]3[C@H]2OC)CC5=C)C[C@@H](C)C4=C)C1 .
### Response 8.82

### Prompt Please report the recorded pIC50 for C#CCN(C)C[C@H](C[C@H]1O[C@H]2C[C@H]3O[C@@H](CC[C@@H]4O[C@@H](CC[C@@]56C[C@H]7O[C@H]8[C@@H](O5)[C@H]5O[C@H](CC[C@@H]5O[C@H]8[C@H]7O6)CC(=O)C[C@@H]2[C@H]1OC)CC4=C)C[C@@H](C)C3=C)OC .
### Response 9.02

### Prompt Please report the recorded pIC50 for C=C(C)CN(CC)CC[C@H]1O[C@H]2C[C@H]3O[C@@H](CC[C@@H]4O[C@@H](CC[C@@]56C[C@H]7O[C@H]8[C@@H](O5)[C@H]5O[C@H](CC[C@@H]5O[C@H]8[C@H]7O6)CC(=O)C[C@@H]2[C@H]1OC)CC4=C)C[C@@H](C)C3=C .
### Response 8.54

### Prompt Please report the recorded pIC50 for C=C1C[C@@H]2CC[C@@]34C[C@H]5O[C@H]6[C@@H](O3)[C@H]3O[C@H](CC[C@@H]3O[C@H]6[C@H]5O4)CC(=O)C[C@@H]3[C@@H](OC)[C@@H](CC(=O)CN4CCOCC4)O[C@H]3C[C@H]3O[C@@H](CC[C@@H]1O2)C[C@@H](C)C3=C .
### Response 8.51
